test_system: human ANO6 (variant 5) (Homo sapiens)
Construct: expressed in transfected cells; host or cells: Fischer rat thyroid (FRT) cells
Sequence (Q4KMQ2 1-931 isoform Q4KMQ2-2): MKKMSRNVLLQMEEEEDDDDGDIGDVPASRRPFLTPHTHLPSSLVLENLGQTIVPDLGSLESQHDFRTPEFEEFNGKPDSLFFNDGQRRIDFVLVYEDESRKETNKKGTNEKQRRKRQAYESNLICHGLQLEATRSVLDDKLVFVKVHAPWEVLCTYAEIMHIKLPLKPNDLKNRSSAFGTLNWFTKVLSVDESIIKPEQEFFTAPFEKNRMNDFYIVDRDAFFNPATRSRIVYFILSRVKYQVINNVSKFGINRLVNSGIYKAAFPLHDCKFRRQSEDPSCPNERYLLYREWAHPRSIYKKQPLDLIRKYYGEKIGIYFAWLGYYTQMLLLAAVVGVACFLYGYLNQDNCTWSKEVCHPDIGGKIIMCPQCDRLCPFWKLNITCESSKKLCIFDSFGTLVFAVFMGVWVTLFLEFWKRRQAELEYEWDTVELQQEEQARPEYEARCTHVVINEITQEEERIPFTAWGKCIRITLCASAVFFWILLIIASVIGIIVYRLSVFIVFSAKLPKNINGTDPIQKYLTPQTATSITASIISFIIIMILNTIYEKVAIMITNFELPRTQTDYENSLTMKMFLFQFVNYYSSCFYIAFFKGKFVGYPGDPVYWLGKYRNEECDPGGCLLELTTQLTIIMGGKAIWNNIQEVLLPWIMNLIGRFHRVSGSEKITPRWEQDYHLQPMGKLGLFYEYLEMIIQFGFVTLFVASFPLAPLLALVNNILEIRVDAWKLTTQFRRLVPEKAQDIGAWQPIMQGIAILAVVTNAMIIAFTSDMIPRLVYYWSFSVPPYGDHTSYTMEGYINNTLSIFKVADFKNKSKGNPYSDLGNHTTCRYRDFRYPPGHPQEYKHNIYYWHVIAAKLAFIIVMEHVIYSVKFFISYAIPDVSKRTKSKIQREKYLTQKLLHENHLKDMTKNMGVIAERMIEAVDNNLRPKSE
assay: Lact C2 assay (measuring phosphatidylserine externalization scramblase function)
Type: cell-based
particulars: FRT, compound 100 nM; FRT cells expressing human ANO6 (variant 5); ionomycin 10 µM; Lact-C2-GFP fluorescence; average of three tests
Readings of inhibition at 0.1 µM for the listed molecules

The cases that follow already have their inhibition at 0.1 µM on record.
Query: Which inhibition at 0.1 µM value belongs to `c1ccc(-c2ccc(Nc3cccc(-c4nc5ccccc5[nH]4)c3)nc2)nc1` ?
Result: > 60%

Query: Which inhibition at 0.1 µM value belongs to `c1cc(Nc2ccc(-c3cccnn3)cc2)cc(-c2nc3ccccc3[nH]2)c1` ?
Result: > 60%

Query: Which inhibition at 0.1 µM value belongs to `FC(F)(F)c1ccc2nc(-c3cccc(Nc4ccc(-c5cncnc5)cc4)c3)[nH]c2c1` ?
Result: > 60%

Query: Which inhibition at 0.1 µM value belongs to `FC(F)(F)c1ccc2nc(-c3cccc(Nc4ccc(-c5cccnn5)cc4)c3)[nH]c2c1` ?
Result: > 60%

Next:
Query: Which inhibition at 0.1 µM value belongs to `Cc1cscc1-c1cnc(Nc2cccc(-c3nc4ccccc4[nH]3)c2)nc1` ?
Result: > 60%

Query: Which inhibition at 0.1 µM value belongs to `FC(F)(F)c1ccc2nc(-c3cccc(Nc4ccc(-c5ccccc5)nn4)c3)[nH]c2c1` ?
Result: > 60%

Query: Which inhibition at 0.1 µM value belongs to `c1cc(Nc2ncc(-c3cccnn3)cn2)cc(-c2nc3ccccc3[nH]2)c1` ?
Result: 30 to 60%
